# TEST_SYSTEM: DPP IV (Homo sapiens, UniProt P27487)
# Sequence (P27487 whole entry, species assumed): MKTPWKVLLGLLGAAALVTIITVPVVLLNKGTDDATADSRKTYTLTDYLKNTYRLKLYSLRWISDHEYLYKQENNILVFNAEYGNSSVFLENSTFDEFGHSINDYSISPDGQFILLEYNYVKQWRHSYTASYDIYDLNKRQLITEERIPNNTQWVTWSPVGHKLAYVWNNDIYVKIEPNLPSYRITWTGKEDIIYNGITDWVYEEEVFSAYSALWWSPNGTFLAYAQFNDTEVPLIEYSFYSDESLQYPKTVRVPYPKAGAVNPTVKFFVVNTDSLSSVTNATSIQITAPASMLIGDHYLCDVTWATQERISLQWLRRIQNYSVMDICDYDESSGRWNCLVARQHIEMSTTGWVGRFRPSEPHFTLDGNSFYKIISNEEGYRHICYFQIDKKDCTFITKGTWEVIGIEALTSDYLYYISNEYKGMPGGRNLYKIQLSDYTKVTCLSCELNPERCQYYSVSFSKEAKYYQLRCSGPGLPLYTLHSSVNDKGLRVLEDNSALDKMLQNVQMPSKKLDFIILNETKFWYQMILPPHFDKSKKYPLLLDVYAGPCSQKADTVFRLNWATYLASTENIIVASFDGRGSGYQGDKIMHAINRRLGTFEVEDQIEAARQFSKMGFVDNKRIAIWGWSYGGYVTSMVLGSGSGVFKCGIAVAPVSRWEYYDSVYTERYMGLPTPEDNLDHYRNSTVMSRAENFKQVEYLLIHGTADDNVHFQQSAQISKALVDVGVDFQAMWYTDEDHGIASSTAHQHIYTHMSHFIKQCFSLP
# TEST_NAME: In vitro DPP IV enzyme inhibition assay; inhibitors incubated at pH 2 or pH 8, then added to enzyme assay solution at pH 8.0
# Assay type: biochemical
# EXPERIMENTAL_CONTEXT: pH 2; ten minutes; read-out: IC50 Values at Ten Minutes pH 2
Reported IC50 values follow for various compounds
Only the number, expressed in nM, is required.

Examples from the recorded data:
compound="NC(C(=O)N1CCCC1C(=O)NC(C(=O)N1CCCC1B(O)O)C1CCCCC1)C1CCCCC1 (stereo not shown)" observed_result=14
compound="CC(NC(=O)C(N)C1CCCCC1)C(=O)NC(C(=O)N1CCCC1B(O)O)C(C)C (stereo not shown)" observed_result=190
compound="CC(N)C(=O)NC(C)C(=O)N1CCCC1C(=O)N1CCCC1B(O)O (stereo not shown)" observed_result=3000

Please examine the following record next.
Param readout = IC50; param system = DPP IV (Homo sapiens, UniProt P27487); param query = CCC(NC(=O)C1CC(O)CN1C(=O)C(N)C1CCCCC1)C(=O)N1CCCC1B(O)O (stereo not shown) ; response: value
17

---

# TEST_SYSTEM: DPP IV (Homo sapiens, UniProt P27487)
# TEST_NAME: In vitro DPP IV enzyme inhibition assay; inhibitors incubated at pH 2 or pH 8, then added to enzyme assay solution at pH 8.0
# Format: biochemical
# EXPERIMENTAL_CONTEXT: pH 8; ten minutes; read-out: IC50 Values at Ten Minutes pH 8
pIC50: −log10 of the molar value.
Entry flag: 1 if pIC50 reaches 6; 0 if it does not.

compound="CCC(NC(=O)C1CCN1C(=O)C(N)C1CCCCC1)C(=O)N1CCCC1B(O)O (centres unmarked)" test_system="DPP IV (Homo sapiens, UniProt P27487)" category=1

Please tell me: is the compound CC(NC(=O)C(N)C1CCCCC1)C(=O)NC(C(=O)N1CCCC1B(O)O)C(C)C (centres unmarked) at or over 6 in terms of pIC50?
1

Does the reported pIC50 for CC(N)C(=O)NC(C)C(=O)NC(C(=O)N1CCCC1B(O)O)C(C)C (centres unmarked) fall at or above the 6 mark?
0

Decide: is the reported value of pIC50 for CCC(NC(=O)C1CCCN1C(=O)C(N)C1CCCCC1)C(=O)N1CCCC1B(O)O (centres unmarked) equal to or greater than 6?
1

# check: pIC50 of NC(C(=O)N1CCCC1C(=O)NC(C(=O)N1CCCC1B(O)O)C1CCCCC1)C1CCCCC1 (centres unmarked) is greater than or equal to 6
1

Reported pIC50 reaches at least 6 for CC(N)C(=O)N1CCCC1C(=O)NC(C(=O)N1CCCC1B(O)O)C(C)C (centres unmarked) ?
1

Record CC(C)(C)[C@H](NC(=O)[C@@H]1CCCN1C(=O)[C@@H](N)C1CCCCC1)C(=O)N1CCC[C@H]1B(O)O ; criterion: pIC50 no lower than 6. Met?
0

// inclusive: pIC50 at least 6? input: CCC(NC(=O)C(C)NC(=O)C(N)C1CCCCC1)C(=O)NC(C)B(O)O (centres unmarked)
0

---

# TEST_SYSTEM: DPP IV (Homo sapiens, UniProt P27487)
# TEST_NAME: In vitro DPP IV enzyme inhibition assay; inhibitors incubated at pH 2 or pH 8, then added to enzyme assay solution at pH 8.0
# Assay type: biochemical
# EXPERIMENTAL_CONTEXT: pH 2; ten minutes; read-out: IC50 Values at Ten Minutes pH 2
pIC50 values for the molecules below.
Keep it numeric: pIC50 is minus log10 of the concentration in mol/L.

Consider the reported pIC50 for these molecules:
molecule="CCC(NC(=O)C(C)NC(=O)C(N)C1CCCCC1)C(=O)N1CCCC1B(O)O (centres unmarked) [ChgAlaEtgboroPro]" test_system="DPP IV (Homo sapiens, UniProt P27487)" parameter=pIC50 observed_result=6.22
molecule="CCC(NC(=O)C1CCN1C(=O)C(N)C1CCCCC1)C(=O)N1CCCC1B(O)O (centres unmarked) [ChgAzeEtgboroPro]" test_system="DPP IV (Homo sapiens, UniProt P27487)" parameter=pIC50 observed_result=7.82
molecule="CNCC(=O)N1CC=CC1C(=O)NC(C)C(=O)N1CCCC1B(O)O (centres unmarked) [SarDhpAlaboroPro]" test_system="DPP IV (Homo sapiens, UniProt P27487)" parameter=pIC50 observed_result=7.41
molecule="CC(C)C(NC(=O)C1CCCN1C(=O)C(N)C1CCCCC1)C(=O)N1CCCC1B(O)O (centres unmarked) [ChgProValboroPro]" test_system="DPP IV (Homo sapiens, UniProt P27487)" parameter=pIC50 observed_result=7.15
molecule="CC(NC(=O)C(C)(C)N)C(=O)NC(C(=O)N1CCCC1B(O)O)C(C)C (centres unmarked) [AibAlaValboroPro]" test_system="DPP IV (Homo sapiens, UniProt P27487)" parameter=pIC50 observed_result=5.70

Param item = CC(C)C(NC(=O)C1CCCN1C(=O)CN)C(=O)N1CCCC1B(O)O (centres unmarked) [GlyProValboroPro] ; retrieve measured pIC50.
7.77

If you can, please state the reported pIC50 value of O=C(C1CCCN1C(=O)C1CCCN1C(=O)C1CCCN1)N1CCCC1B(O)O (centres unmarked) [ProProProboroPro] .
5.00

Item CCC(NC(=O)C(C)NC(=O)C(N)C1CCCCC1)C(=O)NC(C)B(O)O (centres unmarked) [ChgAlaEtgboroAla] has what recorded pIC50?
5.89

---

Consider the following compounds and their measured IC50 readings.
# TEST_SYSTEM: DPP IV (Homo sapiens, UniProt P27487)
# TEST_NAME: In vitro DPP IV enzyme inhibition assay; inhibitors incubated at pH 2 or pH 8, then added to enzyme assay solution at pH 8.0
# Type: biochemical
# EXPERIMENTAL_CONTEXT: pH 8; ten minutes; read-out: IC50 Values at Ten Minutes pH 8
Give the value, in units of nM, as a plain number.

Examples with their reported IC50 follow.
compound="CC(NC(=O)C1CCCN1C(=O)C(N)C(C)(C)C)C(=O)N1CCCC1B(O)O (stereo not shown)" observed_result=18
compound="CNCC(=O)N1CC=CC1C(=O)NC(C)C(=O)N1CCCC1B(O)O (stereo not shown)" observed_result=34
compound="CC(NC(=O)C(NC(=O)C1CCCN1C(=O)C(N)C1CCCCC1)C(C)(C)C)B(O)O (stereo not shown)" observed_result=8400
compound="CC(C)C(NC(=O)C1CCCN1C(=O)CN)C(=O)N1CCCC1B(O)O (stereo not shown)" observed_result=46
compound=CC[C@H](NC(=O)[C@@H]1CSCN1C(=O)[C@@H](N)C1CCCCC1)C(=O)N1CCC[C@H]1B(O)O observed_result=16
compound="CC(NC(=O)C1CCCN1C(=O)C(N)C1CCCCC1)C(=O)N1CCCC1B(O)O (stereo not shown)" observed_result=17

// switching to the query compound
Given the compound CNC(Cc1ccccc1)C(=O)N1CCCC1C(=O)NC(C)C(=O)N1CCCC1B(O)O (stereo not shown) , what is its reported IC50?
2700

---

Reported IC50 values are given for each entry in this list.
# TEST_SYSTEM: DPP IV (Homo sapiens, UniProt P27487)
# TEST_NAME: In vitro DPP IV enzyme inhibition assay; inhibitors incubated at pH 2 or pH 8, then added to enzyme assay solution at pH 8.0
# Format: biochemical
# EXPERIMENTAL_CONTEXT: pH 2; ten minutes; read-out: IC50 Values at Ten Minutes pH 2
Give just the number in nM; leave the unit off.

Reference set (5 entries):
compound="CC(N)C(=O)N1CCCC1C(=O)N1CCCC1C(=O)N1CCCC1B(O)O (stereo not drawn)" parameter=IC50 observed_result=8300
compound=CC[C@H](NC(=O)[C@@H]1CSCN1C(=O)[C@@H](N)C1CCCCC1)C(=O)N1CCC[C@H]1B(O)O parameter=IC50 observed_result=13
compound="CNC(Cc1ccccc1)C(=O)N1CCCC1C(=O)NC(C)C(=O)N1CCCC1B(O)O (stereo not drawn)" parameter=IC50 observed_result=2000
compound="NCC(=O)N1CCCC1C(=O)N1CCCC1C(=O)N1CCCC1B(O)O (stereo not drawn)" parameter=IC50 observed_result=8600
compound="CCC(NC(=O)C1CCCN1C(=O)C(N)C1CCCCC1)C(=O)N1CCCC1B(O)O (stereo not drawn)" parameter=IC50 observed_result=12

What value of IC50 has been reported for the following compound? CC(C)(C)[C@H](NC(=O)[C@@H]1CCCN1C(=O)[C@@H](N)C1CCCCC1)C(=O)N1CCC[C@H]1B(O)O
1500

Fill in: IC50 of CC(NC(=O)C(NC(=O)C1CCCN1C(=O)C(N)C1CCCCC1)C(C)(C)C)B(O)O (stereo not drawn) is ___
6800

Which IC50 is reported for this compound? CC(NC(=O)C(NC(=O)C1CCCN1C(=O)C(N)C1CCCCC1)C1CCCCC1)B(O)O (stereo not drawn)
180

Param item = CC(NC(=O)C1CCCN1C(=O)C(N)Cc1ccc(O)cc1)C(=O)N1CCCC1B(O)O (stereo not drawn) ; retrieve measured IC50.
15
